Provide the recorded inhibition for the entries that follow.
target: Protein kinase C alpha type (Homo sapiens, UniProt P17252); assay: Inhibitory activity of 10 uM compound against protein kinase C-alpha using histone as substrate

Requested field: inhibition. Item: O=C1NC(=O)C(c2cn(CCCO)c3ncccc23)=C1c1ncc(C(F)(F)F)cc1Cl
< 50%

Requested field: inhibition. Item: COc1ccccc1C1=C(c2cn(CCCO)c3ncccc23)C(=O)NC1=O
50%

Requested field: inhibition. Item: COc1ccccc1C1=C(c2cn(CCCN)c3ncccc23)C(=O)NC1=O
50%

Requested field: inhibition. Item: COc1ccccc1C1=C(c2cn(CCCNC(=O)OC(C)(C)C)c3ncccc23)C(=O)NC1=O
< 50%

Requested field: inhibition. Item: COc1ccccc1C1=C(c2cn(CCCNS(N)(=O)=O)c3ncccc23)C(=O)NC1=O
< 50%

Requested field: inhibition. Item: CCn1cc(C2=C(c3cn(CCCO)c4ncccc34)C(=O)NC2=O)c2cccnc21
< 50%

Requested field: inhibition. Item: O=C1NC(=O)C(c2cn(CCCO)c3ncccc23)=C1c1ccccc1C(F)(F)F
50%

Requested field: inhibition. Item: O=C1NC(=O)C(c2cn(CCCO)c3ncccc23)=C1c1ccccn1
< 50%

Requested field: inhibition. Item: O=C1NC(=O)C(c2cn(CCCO)c3ncccc23)=C1c1cccs1
< 50%

Requested field: inhibition. Item: COCCCn1cc(C2=C(c3ccccc3O)C(=O)NC2=O)c2cccnc21
< 50%

Requested field: inhibition. Item: COc1ccccc1C1=C(c2cn(CCCNC=O)c3ncccc23)C(=O)NC1=O
< 50%

Value source: ChEMBL document CHEMBL1146654
